Molecular target: Neuronal acetylcholine receptor; alpha4/beta2 (Rattus norvegicus, UniProt P09483+P12390)
Sequence (P09483 whole entry): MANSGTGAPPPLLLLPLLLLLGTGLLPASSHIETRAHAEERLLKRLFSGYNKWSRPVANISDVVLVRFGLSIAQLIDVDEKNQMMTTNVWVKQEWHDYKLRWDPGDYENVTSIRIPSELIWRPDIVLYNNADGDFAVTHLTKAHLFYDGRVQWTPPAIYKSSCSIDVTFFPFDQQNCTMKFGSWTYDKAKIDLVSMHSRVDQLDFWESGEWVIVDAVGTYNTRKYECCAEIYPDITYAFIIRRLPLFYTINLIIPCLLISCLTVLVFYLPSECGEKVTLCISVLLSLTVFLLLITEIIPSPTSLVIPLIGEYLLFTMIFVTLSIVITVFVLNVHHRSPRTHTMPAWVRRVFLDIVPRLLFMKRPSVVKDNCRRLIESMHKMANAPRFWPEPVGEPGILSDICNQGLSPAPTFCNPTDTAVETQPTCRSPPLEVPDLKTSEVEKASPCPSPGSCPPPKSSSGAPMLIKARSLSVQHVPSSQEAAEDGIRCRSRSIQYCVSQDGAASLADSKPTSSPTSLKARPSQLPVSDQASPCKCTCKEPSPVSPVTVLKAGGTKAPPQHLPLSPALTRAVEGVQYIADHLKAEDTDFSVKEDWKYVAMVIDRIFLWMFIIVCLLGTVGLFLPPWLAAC
Sequence (P12390 whole entry): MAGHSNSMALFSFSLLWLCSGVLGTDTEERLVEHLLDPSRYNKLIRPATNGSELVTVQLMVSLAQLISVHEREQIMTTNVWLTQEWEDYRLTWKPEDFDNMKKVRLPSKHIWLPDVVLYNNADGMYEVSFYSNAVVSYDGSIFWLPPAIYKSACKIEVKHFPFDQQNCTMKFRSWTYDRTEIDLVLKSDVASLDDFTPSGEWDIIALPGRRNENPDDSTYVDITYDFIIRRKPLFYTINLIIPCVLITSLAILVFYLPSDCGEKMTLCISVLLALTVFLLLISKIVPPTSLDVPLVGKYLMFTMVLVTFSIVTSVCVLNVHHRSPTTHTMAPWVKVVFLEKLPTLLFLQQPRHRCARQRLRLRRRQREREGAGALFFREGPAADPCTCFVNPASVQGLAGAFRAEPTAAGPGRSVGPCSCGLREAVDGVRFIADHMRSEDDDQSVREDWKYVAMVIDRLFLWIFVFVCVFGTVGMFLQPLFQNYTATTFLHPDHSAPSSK
Assay: Cholinergic interactions was measured as displaced [3H][…] from Nicotinic acetylcholine receptor alpha4-beta2 in rat brain membranes
pKi: −log10 of the molar value.
readout.label: pKi

Clc1ccc(N2CC3CCC(C2)N3)nn1 :: 5.39

====

Tested on: Mus musculus
Experiment: Licking latency was measured after 15 min treatment (at dose=5 mg/kg) by using mouse hot plate test
Format: functional
Overview of recorded Licking latency for various molecules
readout.label: Licking latency (s)

Clc1ccnc(N2CC3CCC(C2)N3)n1 :: 20.5
Clc1ccc(N2CC3CCC(C2)N3)nn1 :: 27.8
CSc1nc(Cl)cc(N2CC3CCC(C2)N3)n1 :: 20.3
Clc1cccnc1N1CC2CCC(C1)N2 :: 21.3
